Assay: Plasma pharmacokinetics of parsaclisib, cycle 1 day 15
Format: in vivo, Japanese patients
Details: human, plasma, oral, 10 mg, t½, 10 mg QD, cycle 1 day 15, n 3, mean ± SD
PROPERTY_MEASURED: half-life (h)
Give just the number in h; leave the unit off.

# return recorded half-life for input CCOc1c([C@H](C)n2nc(C)c3c(N)ncnc32)cc(Cl)c(F)c1[C@@H]1CNC(=O)C1
12.6

====

Experiment: Plasma pharmacokinetics of parsaclisib, cycle 1 day 15
Assay type: in vivo, Japanese patients
Settings: human, plasma, oral, steady‐state geometric mean t½, overall, dose‐independent
PROPERTY_MEASURED: half-life (h)
Give a bare numeral; the unit h is implied.

Find the measured half-life of CCOc1c([C@H](C)n2nc(C)c3c(N)ncnc32)cc(Cl)c(F)c1[C@@H]1CNC(=O)C1 and report it.
9.9

====

Test: Plasma pharmacokinetics of parsaclisib, cycle 1 day 15
Type: in vivo, Japanese patients
Details: human, plasma, oral, 10 mg
PROPERTY_MEASURED: AUC

Report AUC for CCOc1c([C@H](C)n2nc(C)c3c(N)ncnc32)cc(Cl)c(F)c1[C@@H]1CNC(=O)C1 [parsaclisib]
12.5 µM·h

====

Experiment: Plasma pharmacokinetics of parsaclisib, cycle 1 day 15
Format: in vivo, Japanese patients
Settings: human, plasma, oral, 10 mg, Tmax, 10 mg QD, cycle 1 day 15, n 3, median (range)
PROPERTY_MEASURED: Tmax (min)
Answer with a number only, understood to be in min.

Output Tmax of CCOc1c([C@H](C)n2nc(C)c3c(N)ncnc32)cc(Cl)c(F)c1[C@@H]1CNC(=O)C1
58.2

====

Test: Plasma pharmacokinetics of parsaclisib, cycle 1 day 15
Assay type: in vivo, Japanese patients
Conditions: human, plasma, oral, 20 mg, t½, 20 mg QD, cycle 1 day 15, n 11, mean ± SD
PROPERTY_MEASURED: half-life (h)
State just the number; it will be interpreted in h.

Identify measured half-life corresponding to CCOc1c([C@H](C)n2nc(C)c3c(N)ncnc32)cc(Cl)c(F)c1[C@@H]1CNC(=O)C1 [parsaclisib]
9.8

====

Assay: Plasma pharmacokinetics of parsaclisib, cycle 1 day 15
Format: in vivo, Japanese patients
Conditions: human, plasma, oral, 10 mg, Vz/F, 10 mg QD, cycle 1 day 15, n 3, mean ± SD
PROPERTY_MEASURED: Vd/F (L)
Response body: numeric value in L, unit text excluded.

Give me measured Vd/F, please, for this compound: CCOc1c([C@H](C)n2nc(C)c3c(N)ncnc32)cc(Cl)c(F)c1[C@@H]1CNC(=O)C1
31.3

====

Experiment: Plasma pharmacokinetics of parsaclisib, cycle 1 day 15
Format: in vivo, Japanese patients
Conditions: human, plasma, oral, 10 mg
PROPERTY_MEASURED: Cmax (nM)
State the answer as a number, implicitly in nM.

State, in one line, measured Cmax of CCOc1c([C@H](C)n2nc(C)c3c(N)ncnc32)cc(Cl)c(F)c1[C@@H]1CNC(=O)C1 [parsaclisib]
1440

====

Assay: Plasma pharmacokinetics of parsaclisib, cycle 1 day 15
Type: in vivo, Japanese patients
Details: human, plasma, oral, 20 mg
PROPERTY_MEASURED: Cmax (nM)
Use nM as the unit, but write only the number.

Return reported Cmax. Input compound: CCOc1c([C@H](C)n2nc(C)c3c(N)ncnc32)cc(Cl)c(F)c1[C@@H]1CNC(=O)C1 [parsaclisib]
2630
